FYI, the data here is from PubChem BioAssay AID1963851.

Test system: 188146-221-R-J1-PDC complex spheroid viability;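 note: spheroids exposed to compounds for seven days; 100% = DMSO vehicle control viability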
Experiment: Anticancer human tumor 188146-221-R-J1-PDC patient-derived colon adenocarcinoma cell line growth inhibition [POLQ]
Details: second compound 0.0316 µM; first compound 0.0316 µM; active compounds read low
Listing of recorded viability, T/C by entry.

Take a look at these entries with their results.
>  <compound>
CCc1c2c(nc3ccc(O)cc13)-c1cc3c(c(=O)n1C2)COC(=O)[C@]3(O)CC + Nc1ccc(C#CCN(C(=O)Cc2ncc(C(F)(F)F)cc2C(F)(F)F)c2ccc(F)cc2)nn1

>  <measureName>
viability, T/C

>  <result>
35%

$$$$
>  <compound>
Cn1ncnc1[C@H]1c2n[nH]c(=O)c3cc(F)cc(c23)N[C@@H]1c1ccc(F)cc1 + Cc1cccc(N(C)C(=O)C2C(O)CCN2c2nc(C)cc(C(F)(F)F)c2C#N)c1

>  <measureName>
viability, T/C

>  <result>
99.3%

$$$$

Below: the item to evaluate.
Query: Give 188146-221-R-J1-PDC complex spheroid viability viability, T/C for the following compound: Nc1ccn(C2OC(CO)C(O)C2(F)F)c(=O)n1 (stereo not drawn) + COC1C(OC(N)=O)C(O)C(Oc2ccc3c(O)c(NC(=O)c4ccc(O)c(CC=C(C)C)c4)c(=O)oc3c2C)OC1(C)C
Reply: 46.8%
